- Protocol: protein stability index of a GFP-peptide fusion (GPS, HEK-293T) (PSI 1-6); higher = more stable;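 note: 24-mer peptide tiles fused after GFP, lentivirally expressed, FACS-sorted into six equal bins by GFP/DsRed ratio, decoded by Illumina sequencing, PSI is the read-weighted mean bin number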
- Details: treatment: DMSO; c terminus: a fixed tail appended
Measure: protein stability index
Answers are plain numbers.

Record excerpt, results attached:
[[record]]
record_sequence = "DFEHRPKAPVVECSITGDSSRVIA [WDR88]"
measure = "protein stability index"
numeric_result = 4.36

[[record]]
record_sequence = "SLGAVGEGFHNYHHSFPYDYSASE [SCD]"
measure = "protein stability index"
numeric_result = 3.81

[[record]]
record_sequence = "PESLNSPVSGKAVFMEFGPPNQQM [DLX1]"
measure = "protein stability index"
numeric_result = 3.79

[[record]]
record_sequence = "DSAVENLLLLSKAKLVPSEREASP [IKZF1]"
measure = "protein stability index"
numeric_result = 4.15

[[record]]
record_sequence = "PIFQDSQDTEVFSWSDNERSSSRI [FAM104B]"
measure = "protein stability index"
numeric_result = 4.34

[[record]]
record_sequence = "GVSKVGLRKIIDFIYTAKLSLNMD [KLHL13]"
measure = "protein stability index"
numeric_result = 2.81


Each sequence below has a recorded value; state its protein stability index.
1. DAAIHGFRETEKSRWSEASRAILQ [ALKBH7]
2. ECLKKFNARRKLKGAILTTMLATR [CAMK2B]
3. QWEYPYLLSILPSLLGLLSFPRNN [JAGN1]
4. DELQQSFQKSHNSLQRWEHLKKVA [PRIM1]
5. GPPPAQGSPGDGGLQDQVGAWGLP [EMID1]

*A*
[3.8, 2.98, 2.85, 3.76, 5.02]

----------
Provide the recorded protein stability index for the entries that follow.
- Protocol: protein stability index of a GFP-peptide fusion (GPS, HEK-293T) (PSI 1-6); higher = more stable
- Details: treatment: MLN4924 1 uM, 8 h; c terminus: a fixed tail appended
One number for each entry.

Record excerpt, results attached:
[[record]]
record_sequence = "EEMAKSSRASAARVGQLQEALNER [LRRC45]"
measure = "protein stability index"
numeric_result = 5.12

[[record]]
record_sequence = "DRLASNVAKRKSSMPQKFLGDKGL [IKZF1]"
measure = "protein stability index"
numeric_result = 4.05

[[record]]
record_sequence = "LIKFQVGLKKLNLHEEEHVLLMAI [VDR]"
measure = "protein stability index"
numeric_result = 2.73

[[record]]
record_sequence = "QKNGGGAYLVPYLVLLIIIGIPLF [SLC6A17]"
measure = "protein stability index"
numeric_result = 2.83

[[record]]
record_sequence = "HDESPGNNVVDISVPPTTDGQKPN [RAB11B]"
measure = "protein stability index"
numeric_result = 5.57


Each sequence below has a recorded value; state its protein stability index.
1. NEYVAIKLEPIKSRAPQLHLEYRF [CSNK1G1]
2. ESSSDSGSSDSEEERATRLAELQE [BRD3]
3. RNLHSHYHEAPMTRKHYQVTGYGI [POMT2]
4. TGEKPHTCSECGKGFIQKGNLNIH [ZNF649]

*A*
1: 2.53; 2: 5.51; 3: 2.46; 4: 3.54

----------
- Protocol: protein stability index of a GFP-peptide fusion (GPS, HEK-293T) (PSI 1-6); higher = more stable
- Details: treatment: MLN4924 1 uM, 8 h; c terminus: a fixed tail appended
Classify as follows. Reported protein stability index greater than or equal to 3: 1.0. Reported protein stability index below: 0.0.

Take a look at these entries with their results.
[[record]]
record_sequence = "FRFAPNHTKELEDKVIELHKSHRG [EPB41L3]"
class_label = 1.0

[[record]]
record_sequence = "NTRGTGSSSSGVLMVGPNFRVGKK [CSNK1G3]"
class_label = 1.0

[[record]]
record_sequence = "GGDLEEQQHAEGSPEPGTPAAPTP [DNAAF3]"
class_label = 1.0

[[record]]
record_sequence = "LIDHLALRARNYEYLIRLFQEWEA [TCF25]"
class_label = 0.0

[[record]]
record_sequence = "VVYVKHQAQIDQYLGLVRTHINAV [RTN1]"
class_label = 0.0

[[record]]
record_sequence = "AALNAHSDCCRKLLSSGFEIDTPD [ANKRD44]"
class_label = 1.0

[[record]]
record_sequence = "KKAFLNQAQIELRLLELMNQHDTE [DYRK1B]"
class_label = 1.0

[[record]]
record_sequence = "GPPPAQGSPGDGGLQDQVGAWGLP [EMID1]"
class_label = 1.0


Now look at this one.
*Q* Does PAKAANRTPPKSPGDPSKDRAAKR [TPPP] have a reported protein stability index of at least 3?
*A* 1.0

meta.source: the supplement of paper PMC10567573
